Assign kd (1/s) huBCMA @37° C. to each entry below.
Assay target: T1, hBCMA (human BCMA) (Homo sapiens, UniProt Q02223)
T1 sequence (Q02223 1-184): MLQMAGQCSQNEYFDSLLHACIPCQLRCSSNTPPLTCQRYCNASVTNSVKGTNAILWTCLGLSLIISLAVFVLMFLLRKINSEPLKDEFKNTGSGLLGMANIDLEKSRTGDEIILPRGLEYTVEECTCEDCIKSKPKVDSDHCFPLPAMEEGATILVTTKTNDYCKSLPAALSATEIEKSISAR
Experiment summary: Kinetics and affinity of hBCMA/human IgG interactions by SPR (Bio-Rad Proteon XPR36)
Type: binding
Run conditions: huBCMA, 37° C.
Write the numeric value and follow it with the unit.

Task: Answer with the recorded kd (1/s) huBCMA @37° C. of L3.PY/L3.KF/H2.QL: anti-BCMA antibody (antibody, V domains shown) VH: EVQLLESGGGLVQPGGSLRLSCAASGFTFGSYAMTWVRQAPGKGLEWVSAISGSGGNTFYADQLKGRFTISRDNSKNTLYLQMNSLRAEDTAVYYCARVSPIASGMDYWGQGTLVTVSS VL: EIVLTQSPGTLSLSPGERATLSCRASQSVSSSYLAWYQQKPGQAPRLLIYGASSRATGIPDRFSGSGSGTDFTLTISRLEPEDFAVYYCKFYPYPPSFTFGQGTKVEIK only.
Result: 0.00125 s⁻¹

Task: Answer with the recorded kd (1/s) huBCMA @37° C. of L3.PY/L1.PH/H3.AE: anti-BCMA antibody (antibody, V domains shown) VH: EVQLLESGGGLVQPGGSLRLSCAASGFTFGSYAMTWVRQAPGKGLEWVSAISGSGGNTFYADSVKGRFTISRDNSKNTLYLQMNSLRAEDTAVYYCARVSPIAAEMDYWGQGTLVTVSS VL: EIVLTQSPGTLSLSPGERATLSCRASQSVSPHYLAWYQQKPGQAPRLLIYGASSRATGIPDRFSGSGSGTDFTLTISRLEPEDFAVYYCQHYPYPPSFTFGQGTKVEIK only.
Result: 0.00134 s⁻¹

Data provenance: patent US11814435B2
